Reported binding affinity ratio (IC50 of standard peptide / IC50 of test peptide) values for a set of binders
- measured.target: HLA-B*3501 (Human)
- assay.procedure: competition with 125I-labelled probe peptide for purified HLA, gel filtration
// no unit, no text: just the number

PPAYRPPNAPI (modifications not checked)	0.0001

Which binding affinity ratio (IC50 of standard peptide / IC50 of test peptide) reading was recorded for the binder SPEHCSPHHTA (modifications not checked) [HBV NUC 44 peptide …] ? 0.0001

Try PPHGGLLGW (modifications not checked) [HBV ENV 58 peptide …] next. 0.0002

Try PPAYRPPNA (modifications not checked) next. 0.0001

Try LPLDKGIKPYY (modifications not checked) [HBV POL 123 peptide …] next. 0.0009

Where do the numbers come from? From patent US20090311283A1.
